Target: human Fpn (Homo sapiens, UniProt Q9NP59)
Construct: FLAG (C); made in house; host or cells: Pichia pastoris
Sequence (Q9NP59 1-571): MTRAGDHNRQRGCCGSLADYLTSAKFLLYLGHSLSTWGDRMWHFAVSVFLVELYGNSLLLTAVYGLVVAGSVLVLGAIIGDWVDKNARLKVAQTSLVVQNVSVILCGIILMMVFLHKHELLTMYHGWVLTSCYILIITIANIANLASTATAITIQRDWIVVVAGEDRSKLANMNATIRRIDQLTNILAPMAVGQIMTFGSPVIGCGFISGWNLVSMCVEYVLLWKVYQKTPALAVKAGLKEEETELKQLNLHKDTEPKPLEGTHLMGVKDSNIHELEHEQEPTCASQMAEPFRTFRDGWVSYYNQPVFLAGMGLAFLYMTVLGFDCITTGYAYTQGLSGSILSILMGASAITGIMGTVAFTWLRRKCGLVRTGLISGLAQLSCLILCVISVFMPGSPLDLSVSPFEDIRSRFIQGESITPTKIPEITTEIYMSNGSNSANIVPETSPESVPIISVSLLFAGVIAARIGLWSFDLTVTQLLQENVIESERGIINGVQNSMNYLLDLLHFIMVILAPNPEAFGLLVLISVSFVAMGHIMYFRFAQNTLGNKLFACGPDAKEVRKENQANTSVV
Test: Biophysical Ferroportin-Hepcidin Binding Assay (fluorescence polarization)
Settings: average of multiple measurements; 1 μM human Fpn, 20 nM TMR-hepcidin; read-out: FP IC50
Recorded pIC50 for the following compounds
API: returns pIC50 as number; meaning -log10 of concentration in mol/L.

Previously resolved entries follow.
[
  {
    "Compound": "O=C(NCc1ncccc1F)c1cncc(CCNCCc2nc3cc(F)ccc3[nH]2)c1",
    "Observed property": "pIC50",
    "Measured number": 6.53
  },
  {
    "Compound": "O=C(NCc1ncccc1F)[C@@H]1CCN(CCNCc2nc3ccccc3[nH]2)C1",
    "Observed property": "pIC50",
    "Measured number": 5.79
  }
]

IN: Fill in: pIC50 of O=C(NCc1ccccc1OC(F)(F)F)c1csc(CCNCc2nc3ccccc3[nH]2)n1 is ___
OUT: 6.03

IN: Fill in: pIC50 of Cc1cnc(CNC(=O)c2nc(CCNCc3nc4ccccc4[nH]3)sc2Cl)nc1 is ___
OUT: 5.72

IN: Fill in: pIC50 of O=C(NC1CCCc2cccnc21)c1csc(CCNCc2nc3ccccc3[nH]2)n1 (centres unmarked) is ___
OUT: 6.63

IN: Fill in: pIC50 of Cc1c(C(=O)NCc2ncccc2F)ncn1CCNCCc1nc2ccccc2[nH]1 is ___
OUT: 5.96
